Values were extracted from PubChem BioAssay (NCI).

System: UO-31 renal
PROTOCOL_DESCRIPTION: NCI tumour cell line growth inhibition, 48 h
Listing of recorded TGI by entry.
Please state the figure in µM; there is no need to write the unit.

Use the examples below as a reference point.
- CC1(c2cccc(C(F)(F)F)c2)CC(c2cccc(C(F)(F)F)c2)=C(C#N)C(=C(C#N)C#N)N1 (centres undefined): 33.4
- O=C(CC(=O)n1nc(-c2ccccc2)c(N=Nc2ccc([N+](=O)[O-])cc2)c1-c1ccccc1)Nc1ccc(Cl)cc1: 45.1
- COc1cc(/C=C/C(=O)c2cccc(-n3cc(-c4ccccc4)[nH]c3=O)c2)ccc1O: 8.73
- N#C/C(=C\c1ccccn1)c1nc2ccccc2o1: 59.7
- Nc1ncnc2occ(-c3ccc(NC(=O)Nc4cccc(C(F)(F)F)c4)cc3)c12: 11

Problem: Write down the reported TGI of COc1ccc(C(=O)c2no[n+]([O-])c2C(=O)c2ccc(OC)cc2)cc1 , test system: UO-31 renal.
Solution: 1.17

Problem: UO-31 renal / TGI / O=C(Cn1c(C(=O)/C=C/c2ccc(Cl)c(Cl)c2)nc2ccccc21)c1ccccc1 : value?
Solution: 56

Problem: Param readout= TGI; system= UO-31 renal; entry= CC1Nc2ccccc2NC1C=C(C#N)C#N (centres undefined) ; returns value.
Solution: 28.3

Problem: Lab note: need TGI for CCCCCCCCCCCCNCCCc1ccccc1 on UO-31 renal, anyone have it?
Solution: 4.35

Problem: API: value(readout=TGI, system=UO-31 renal) for record CCOC(=O)C(c1ccsc1)P(=O)(OCC)OCC (centres undefined)
Solution: 28.4

Problem: Give the reported TGI for C1=C(c2ccccc2)NC2=N[C@H]3CCCC[C@@H]3N2C1c1ccccc1 (some centres undefined) (system: UO-31 renal).
Solution: 24.8

Problem: Test system UO-31 renal; read-out TGI; what value for NC(=O)c1c(-c2ccccc2)c(-c2ccccc2)cc2c(=O)c3ccccc3[nH]c12 ?
Solution: 80.2

* * *

Quick reference for TGI among some molecules
Test system: NCI/ADR-RES ovarian
PROTOCOL_DESCRIPTION: NCI tumour cell line growth inhibition, 48 h

Solved cases (5 shown):
- CCOC(=O)/C(=C\n1c(=O)sc2ccccc21)C(=O)c1ccccc1: > 100 µM
- O=C(O)c1cc(-c2ccc3cc(O)c(O)cc3c2)ccc1O: > 12.5 µM
- O=C1OC(=O)c2c1cc1cc3c(cc1c2-c1ccc2c(c1)OCO2)OCO3: > 100 µM
- COc1ccc(-n2c(C)nc3ccc(NC4OCC(OC(C)=O)C(OC(C)=O)C4OC(C)=O)cc3c2=O)cc1 (stereo not given): > 100 µM
- COP(=O)(OC)[C@@](O)(c1ccccc1)[C@@H](O)[C@@H](O)c1ccccc1: > 100 µM

Problem: Provide the documented TGI with NCI/ADR-RES ovarian as the system for COc1ccc(/C=N/n2c(Cc3ccccc3)n[nH]c2=O)c(OC)c1
Solution: 86.5 µM

Problem: Fill in the recorded TGI for this molecule, with NCI/ADR-RES ovarian as test system: CSc1nc2c(ncn2C2OC(CO)C(O)C(O)C2O)c(=O)n1C (stereo not given)
Solution: > 100 µM

Problem: Short answer please: TGI, NCI/ADR-RES ovarian, entry O=c1oc2cc(O)ccc2cc1-c1nc2ccccc2o1
Solution: > 100 µM

Problem: Checklist item: TGI tested on NCI/ADR-RES ovarian, entry COc1cc2c(cc1OCCCN1CCN(CCCOc3cc4c(cc3OC)C(=O)N3C[C@H](F)C[C@H]3C=N4)CC1)N=C[C@@H]1C[C@@H](F)CN1C2=O , value?
Solution: 47.3 µM

Problem: What measured TGI is associated with CCCCCCCCCCCCCCCCNc1nc(=O)n(C2CC(O)C(COP(=O)(O)OC3CC(n4cc(F)c(=O)[nH]c4=O)OC3CO)O2)cc1F (stereo not given) on NCI/ADR-RES ovarian?
Solution: 46 µM

* * *

TGI values by entry
Tested on: U251 CNS
PROTOCOL_DESCRIPTION: NCI tumour cell line growth inhibition, 48 h

* C[C@H]1CCC/C=C/[C@@H]2C[C@H](O)C[C@H]2[C@H](O)C(O)C(O)C(=O)O1 (stereo partly specified) | > 100 µM
* COc1cc2c(/C=C3/C(=O)Nc4cc(C)c(O)cc43)c(Cl)[nH]c2cc1C | 15.7 µM
* CSc1cc(Cl)c(C(=O)Nc2ccccc2)cc1S(=O)(=O)n1cc[nH]c1=O | > 100 µM
* CCOC(=O)c1nc2sc(Cl)cn2c1/C=N/N=C(N)N | > 53.9 µM
* CC(C)(C(=O)N(C(=O)N1CCN(c2ccccc2)CC1)S(=O)(=O)c1ccccc1)c1ccc(Cl)cc1 | > 100 µM
* O=C(NC1C(=O)NC(CCc2ccccc2)NC1=O)OCc1ccccc1 (stereo unspecified) | > 100 µM
* Nc1ncnc2occ(-c3ccc(NC(=O)Nc4cccc(C(F)(F)F)c4)cc3)c12 | 16.5 µM
* C(#Cc1ccccc1C#Cc1cnccn1)c1cnccn1 | > 100 µM
* O=C1C=CC2(C=C1)O[C@H](CCc1ccccc1)[C@@H](CCc1ccccc1)O2 | 38.2 µM
* CC1CCC2C(C(=O)O[C@H]3C4C=CO[C@@H](OC5OC(CO)C(O)C(O)C5O)C4[C@@]4(CO)O[C@@H]34)=CO[C@@H](OC3OC(CO)C(O)C(O)C3O)C12 (stereo partly specified) | > 10 µM

Problem: Quick one: TGI of CC1(C)CCOC(Sc2ccccc2)C1 (stereo unspecified) ?
Solution: > 100 µM

Problem: Endpoint output: TGI of N#C/C(=C\c1ccccn1)c1nc2ccccc2o1 . Value?
Solution: 49.8 µM

Problem: Need TGI of CC(C)(C)C1CC[C@H](O)[C@H]([C@@H](O)CC2CC(=O)N(c3ccccc3)C(=O)C2)C1 (stereo partly specified) , thanks.
Solution: > 100 µM

Problem: Give its TGI value. Item: CCOC(=O)C(c1ccsc1)P(=O)(OCC)OCC (stereo unspecified)
Solution: 45.4 µM

Problem: Consider the compound CC[P+](C)(C)CC and give its measured TGI.
Solution: > 100 µM

Problem: What does the record list as TGI for CCCCCCCCC#CCCCCCCC(F)C(=O)O (stereo unspecified) ?
Solution: > 100 µM

Problem: What does the record list as TGI for C1=C(c2ccccc2)NC2=N[C@H]3CCCC[C@@H]3N2C1c1ccccc1 (stereo partly specified) ?
Solution: 26.1 µM

Problem: Please look up its TGI: COC(=O)N1C=CC2=C(C)C3Nc4ccccc4C3C(C)=C2C1 (stereo unspecified)
Solution: > 100 µM

Problem: // lookup TGI for NC(N)=N/N=C/c1c(Cl)nc2n1CCS2
Solution: > 100 µM

Problem: So what does the record say about TGI for COc1cc(/C=C2\CC3C4CC=C5C[C@@H](N6CCCC6)CC[C@]5(C)C4CC[C@]3(C)[C@H]2OC(C)=O)ccc1OCCCn1ccnc1 (stereo partly specified) ?
Solution: 0.164 µM

Problem: Reported TGI, compound O=C1c2ccccc2-n2c1nc1ccc([N+](=O)[O-])cc1c2=O : ____
Solution: > 100 µM

* * *

System: SK-MEL-5 melanoma
PROTOCOL_DESCRIPTION: NCI tumour cell line growth inhibition, 48 h; in the data active = GI50 below about 0.43 µM; inactive = the rest
The reply should name one outcome from active, inactive

- O=C1c2c[n+](Cc3ccccc3)ccc2-c2nc3ccccc3c3ccnc1c23: inactive

Problem: Returns: the outcome recorded for CC(C)(C)c1ccc(OCCCCCCCN2CCNCC2)cc1 in this assay.
Solution: inactive

Problem: # lookup: test call for NC(=O)c1c(NC(=O)c2ccc(C(F)(F)F)cc2Cl)sc2c1CCC(=O)C2
Solution: inactive

Problem: Please state the recorded outcome for this molecule: CC[C@@]1(O)C(=O)OCc2c1cc1n(c2=O)Cc2cc3c(N)c(OC)ccc3nc2-1
Solution: active

Problem: Please share the test call associated with O=C(Nc1cccc2[nH]c(C(F)(F)F)nc12)c1ccc(Br)cc1F .
Solution: inactive

Problem: Assay result, entry Nc1ccccc1SC(CC(=O)c1ccccc1)c1c(Cl)cccc1Cl (centres undefined) — outcome?
Solution: inactive

Problem: Write down the call the test reported for this molecule. Item: CC(=O)OC1C(C)OC(Oc2c(-c3ccc(O)cc3)oc3cc(O)cc(O)c3c2=O)C(O)C1OC(C)=O (centres undefined)
Solution: inactive

Problem: # lookup: test call for COc1cc(/C=C/C(=O)c2cccc(-n3cc(-c4ccccc4)[nH]c3=O)c2)ccc1O
Solution: inactive

Problem: I would be grateful if you could indicate the recorded call for Cc1nc2sc(C(=O)Nc3cccc4c3OCCO4)c(N)c2cc1C(C)O (centres undefined) .
Solution: inactive

* * *

Tested on: HS 578T breast
PROTOCOL_DESCRIPTION: NCI tumour cell line growth inhibition, 48 h; in the data active = GI50 below about 0.43 µM; inactive = the rest
Outcome (select one): TRUE = active, FALSE = inactive

Reference set (2 entries):
• O=C(N/N=C/c1coc2ccc(Cl)cc2c1=O)c1cc(O)c(O)c(O)c1 = FALSE
• COc1cc(/C=C/C(=O)c2cccc(-n3cc(-c4ccccc4)[nH]c3=O)c2)ccc1O = FALSE

Problem: Tell me the recorded outcome of this test for C[C@H]1CCC/C=C/[C@@H]2C[C@H](O)C[C@H]2[C@H](O)C(O)C(O)C(=O)O1 (stereo not given in full) .
Solution: FALSE

Problem: Recorded call for COc1cc2c(cc1OCCCN1CCN(CCCOc3cc4c(cc3OC)C(=O)N3C[C@H](F)C[C@H]3C=N4)CC1)N=C[C@@H]1C[C@@H](F)CN1C2=O ?
Solution: TRUE

Problem: What did this assay record as the result for CCOC(=O)c1c(C)n(Cc2ccc(Cl)cc2Cl)c2c1cc(O)c1[nH]c(Cc3ccccc3)nc12 ?
Solution: FALSE

Problem: Tell me the assay call for O=[N+]([O-])c1cc2c(ccc3ccccc32)o1 please.
Solution: FALSE

Problem: Assay result, entry CC(C)(C)c1ccc(OCCCCCCCN2CCNCC2)cc1 — outcome?
Solution: FALSE

Problem: For this compound, state the assay outcome: CCn1cnc(C[C@H](NC(=O)[C@@H](NC(=O)Nc2cc(C(F)(F)F)cc(C(F)(F)F)c2)C(C)(C)C)C(=O)OC)c1
Solution: FALSE

Problem: Please indicate how the test categorized Nc1ncnc2occ(-c3ccc(NC(=O)Nc4cccc(C(F)(F)F)c4)cc3)c12 .
Solution: FALSE

Problem: Given O=C1C=CC(=O)N1c1ccc2ccccc2c1 , state the outcome it received in this test.
Solution: FALSE
